# System: BT-549
# measurement-notes: Cytotoxicity against human BT549 cells assessed as reduction in cell viability after 24 hrs by MTT assay
# Type: functional, cell-based
# condition-context: BT-549, 24 h
observed-property: IC50

[[record]]
compound = "COc1ccc(CC2COc3ccccc3C2=O)cc1O (configuration not stated)"
recorded_measurement = "> 100 µM"

[[record]]
compound = "O=C1c2ccccc2OCC1Cc1ccc(F)cc1 (configuration not stated)"
recorded_measurement = "> 200 µM"

[[record]]
compound = "COc1ccc(CC2COc3ccccc3C2=O)c(OC)c1OC (configuration not stated)"
recorded_measurement = "> 100 µM"

[[record]]
compound = "COc1ccc(CC2COc3cccc(OC)c3C2=O)cc1O (configuration not stated)"
recorded_measurement = "> 200 µM"

[[record]]
compound = "COc1ccc(CC2COc3ccc(C)cc3C2=O)cc1 (configuration not stated)"
recorded_measurement = "> 100 µM"

[[record]]
compound = "COc1ccc(CC2COc3ccccc3C2=O)cc1OC (configuration not stated)"
recorded_measurement = "> 100 µM"

[[record]]
compound = "COc1ccc(CC2COc3ccccc3C2=O)cc1 (configuration not stated)"
recorded_measurement = "> 100 µM"

